B1: mRNA-splicing (parent)
chain: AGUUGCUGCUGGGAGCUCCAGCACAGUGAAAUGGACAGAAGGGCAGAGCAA

- Variants of: B1
- procedure_text: exon inclusion enrichment index; higher = more inclusion; WT1 exon 5 minigene, HEK293
As shown below, each of these variants has a reported exon inclusion enrichment index value.
measured_metric: exon inclusion enrichment index

INSERT INTO measurements (mutation, reading) VALUES
  ('C6A C9A U10C', 2.01),
  ('G2U C6A U7A C9A U10A', 1.36),
  ('G5C C6G U7C U10C A47G G48U', 0.733),
  ('G5C C6G U7C U10C A47G', 0.871),
  ('G5C C6U G8C C9U U10C G26C', 2.29),
  ('G5C C6U G8C C9U U10C G21A C22U', 0.846),
  ('G5A C6U U7A G8U C9A G41A G42A', 0.0506),
  ('G5A C6G U7G C9A U17C C18U', 0.00126),
  ('G5A C6U U7A G8U C9A G21A C22G', 0.0719),
  ('G5C C6A U7C G8A U10A C18U C19A', 0.00114),
  ('G5A C6U U7G G8A U10C', 1.97),
  ('A31G U32C', 0.99),
  ('G5U G8U C9G U10A', 0.128),
  ('C6A U7C C9A U10A G11U', 2.49),
  ('U3G G5A C6U U7A G8U C9A', 0.0113),
  ('A20C', 2.03),
  ('G5A C6U U7A G8U C9A G13A', 0.144),
  ('G5A C6G U7G C9A C18U C19U', 0.00102),
  ('G5C C6A U7C G8A C9U U10G', 0.525),
  ('G5A C6U U7A G8U C9A A31C U32C', 0.363),
  ('U3A U4A G5U G8U C9U', 0.296),
  ('G5C C6U G8C C9U U10C G38U A39G', 0.734),
  ('G5U G8U C9U A31G U32A', 1.22),
  ('G5A C6G U7G C9A G15A C16U', 0.000755),
  ('G5A U7C G8A U10C G21U C22A', 0.951),
  ('G5C C6U G8C C9U U10C C19U A20U', 0.25),
  ('U10A', 0.633),
  ('G5C C6G U7C U10C G41U G42A', 1.45),
  ('C6A U7A C9A U10A U32G', 0.041),
  ('G5A C6U U7A G8U C9A G43C', 0.15),
  ('G5C C6G U7C U10C G26C U27A', 3.33),
  ('C6A U7C C9A U10C G13A A14G', 3),
  ('G5A C6G U7G C9A A20U G21U', 0.000871),
  ('G5A C6G U7G C9A C16A U17C', 0.00344),
  ('C6A U7C G8A U10A', 0.127),
  ('G5C C6G U7C U10C A40G G41A', 1.99),
  ('C6A U7C C9A U10C A31C', 3.96),
  ('G5C C6A U7C G8A U10A G42A G43A', 1.43),
  ('G5C C6G U7C U10C G34A A35U', 1.96),
  ('G5A U7C G8A G11A', 0.186),
  ('C6A U7A C9A U10A A39C A40C', 1.65),
  ('G5C C6A U7C G8A U10A G33C G34U', 0.0659),
  ('G5A U7C G8A U10C G41C G42C', 3.27),
  ('G5C C6U G8C C9U U10C C44U A45C', 2.63),
  ('C18G', 0.287),
  ('G5A C6G U7G C9A A47U', 0.00119);

Values compiled from the RNAGym collection of RNA variant scans (doi:10.1101/gr.219683.116).
